study-system: human TLR7 (Homo sapiens (Human), UniProt Q9NYK1)
Sequence (Q9NYK1 27-1049): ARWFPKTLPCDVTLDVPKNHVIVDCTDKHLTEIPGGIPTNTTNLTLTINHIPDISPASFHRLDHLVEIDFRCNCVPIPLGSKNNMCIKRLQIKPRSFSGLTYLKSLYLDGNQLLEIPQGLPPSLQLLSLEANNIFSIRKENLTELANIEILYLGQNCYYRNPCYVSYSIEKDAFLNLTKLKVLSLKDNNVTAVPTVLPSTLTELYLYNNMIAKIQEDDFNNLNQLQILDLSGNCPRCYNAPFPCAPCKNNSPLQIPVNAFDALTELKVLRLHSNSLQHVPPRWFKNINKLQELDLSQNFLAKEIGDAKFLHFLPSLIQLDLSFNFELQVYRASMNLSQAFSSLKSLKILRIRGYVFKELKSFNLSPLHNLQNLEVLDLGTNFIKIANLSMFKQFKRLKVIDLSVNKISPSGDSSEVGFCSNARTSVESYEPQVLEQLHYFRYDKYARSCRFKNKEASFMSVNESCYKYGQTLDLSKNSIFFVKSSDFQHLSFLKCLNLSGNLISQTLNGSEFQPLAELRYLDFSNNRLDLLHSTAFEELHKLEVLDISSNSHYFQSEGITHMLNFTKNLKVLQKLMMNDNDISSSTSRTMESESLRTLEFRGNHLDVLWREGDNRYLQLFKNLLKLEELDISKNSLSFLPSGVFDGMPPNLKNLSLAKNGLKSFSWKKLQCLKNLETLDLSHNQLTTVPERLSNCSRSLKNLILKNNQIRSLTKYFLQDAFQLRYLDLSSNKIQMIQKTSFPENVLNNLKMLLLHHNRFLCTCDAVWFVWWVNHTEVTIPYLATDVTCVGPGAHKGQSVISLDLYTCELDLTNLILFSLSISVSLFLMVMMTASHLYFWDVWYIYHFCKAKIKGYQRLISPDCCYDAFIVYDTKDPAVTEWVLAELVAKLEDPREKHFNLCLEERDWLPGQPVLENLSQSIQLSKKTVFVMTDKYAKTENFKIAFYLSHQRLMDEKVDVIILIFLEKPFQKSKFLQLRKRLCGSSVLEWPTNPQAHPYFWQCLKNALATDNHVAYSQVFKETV
experimental-protocol: TLR7 inhibition reporter assay (HEK-Blue SEAP)
Type: cell-based
settings: HEK-Blue cells overexpressing human TLR7, gardiquimod 7.5 μM stimulation, SEAP reporter
measured-property: pIC50
Scale explanation: pIC50 corresponds to minus log10 of a concentration expressed in moles per litre.

- molecule: "Cc1c(-c2[nH]c3ccc(C4CCC(NCCO)CC4)nc3c2C(C)C)cn2ncnc2c1C (stereo not shown) [Example 379]"
  measured-property: "pIC50"
  observed-measurement: 8.59

Q: Please report the recorded pIC50 for Cc1c(-c2[nH]c3ccc(N4CCN(CC(=O)N(C)C)CC4)nc3c2C(C)C)cn2ncnc2c1C [Example 144] .
Ans: 8.08

Q: // same read-out, input: COc1cc(-c2[nH]c3cc(C)c(C4CCC(NCC(F)F)CC4)nc3c2C(C)C)cn2ncnc12 (stereo not shown) [Example 324]
Ans: 8.18

Q: Next: COc1cc(-c2[nH]c3ccc(C4CCC(N)C4)nc3c2C(C)C)cn2ncnc12 (single isomer, unassigned) [Example 8]
Ans: 8.33

Q: Same again, this time with CC(C)c1c(-c2cc(CO)c3ncnn3c2)[nH]c2ccc(C3CCC(N(C)C4COC4)CC3)nc12 (stereo not shown) [Example 252]
Ans: 8.10

Q: # repeat for Cc1c(-c2[nH]c3ccc(N4CCC(N(C)C5COC5)CC4)nc3c2C(C)C)cn2ncnc2c1C [Example 65]
Ans: 8.72

Q: Check Cc1c(-c2[nH]c3ccc(N4CC(NCC(=O)N(C)C)C4)nc3c2C(C)C)cn2ncnc2c1C [Example 22] too.
Ans: 7.25
